Assay: Half-life in female CD-1 mouse at 60 mg/kg, sc administered as single dose and measured by LC-MS/MS analysis
Assay type: ADME, organism-based
Conditions: in vivo
readout: half-life (min)
Numbers only; they are read as min.

half-life reading for `CN1CCN(CCCCCCOc2ccc(C(=C3C4CC5CC(C4)CC3C5)c3ccc(OCCCCCCN4CCN(C)CC4)cc3)cc2)CC1` : 2740

---

Assay: Half-life in female CD-1 mouse at 20 mg/kg, po administered as single dose and measured by LC-MS/MS analysis
Format: ADME, organism-based
Conditions: in vivo
readout: half-life

half-life reading for `CCN(CC)CCCCCCOc1ccc(C(c2ccc(OCCCCCCN(CC)CC)cc2)=C2[C@H]3C[C@@H]4C[C@@H](C[C@H]2C4)C3)cc1` : 61.8 h

---

Test: AUC (0 to 48 hrs) in female CD-1 mouse at 40 mg/kg, sc administered as single dose and measured by LC-MS/MS analysis
Type: ADME, organism-based
Set-up: time < 48 hr, route subcutaneous, dose 40 mg/kg
Details: in vivo
readout: AUC(0-t) at 48 h

AUC(0-t) at 48 h reading for `C[n+]1ccn(CCCCCCOc2ccc(C(=C3C4CC5CC(C4)CC3C5)c3ccc(Cl)cc3)cc2)c1.[I-]` : 150 µM·h

---

Experiment: Half-life in mouse at 20 mg/kg, sc measured by LC-MS/MS analysis
Type: ADME, organism-based
Conditions: in vivo
readout: half-life (h)
Numbers only; they are read as h.

half-life reading for `Nc1c(C(=O)Nc2ccc(F)cc2)sc2nc(-c3cccs3)cc(C(F)(F)F)c12` : 21.8

---

Experiment: AUC in mouse at 20 mg/kg, sc measured by LC-MS/MS analysis
Format: ADME, organism-based
Parameters: dose 20 mg/kg
Conditions: in vivo
readout: AUC

AUC reading for `Nc1c(C(=O)Nc2ccc(F)cc2)sc2nc(-c3cccs3)cc(C(F)(F)F)c12` : 1.2 µM·h

---

Hi there, I'd appreciate the recorded half-life for every entry that follows.
Experiment: Half-life in female CD-1 mouse at 40 mg/kg, sc administered as single dose and measured by LC-MS/MS analysis
Type: ADME, organism-based
Settings: in vivo

half-life reading for `CC[N+](C)(CC)CCCCCCOc1ccc(C(c2ccc(OCCCCCC[N+](C)(CC)CC)cc2)=C2C3C[C@H]4C[C@@H](C3)C[C@H]2C4)cc1.[I-].[I-]` : 38.6 h

half-life reading for `C[N+]1(CCCCCCOc2ccc(C(c3ccc(Cl)cc3)=C3C4C[C@H]5C[C@@H](C4)C[C@H]3C5)cc2)CCCC1.[I-]` : 31.5 h

half-life reading for `Clc1ccc(C(=C2C3CC4CC(C3)CC2C4)c2ccc(OCCCCCCN3CCCC3)cc2)cc1` : 26.7 h

half-life reading for `C[n+]1ccn(CCCCCCOc2ccc(C(=C3C4CC5CC(C4)CC3C5)c3ccc(Cl)cc3)cc2)c1.[I-]` : 36.8 h
